Target: MAP4K5 (Homo sapiens)
Sequence (Q9Y4K4 whole entry): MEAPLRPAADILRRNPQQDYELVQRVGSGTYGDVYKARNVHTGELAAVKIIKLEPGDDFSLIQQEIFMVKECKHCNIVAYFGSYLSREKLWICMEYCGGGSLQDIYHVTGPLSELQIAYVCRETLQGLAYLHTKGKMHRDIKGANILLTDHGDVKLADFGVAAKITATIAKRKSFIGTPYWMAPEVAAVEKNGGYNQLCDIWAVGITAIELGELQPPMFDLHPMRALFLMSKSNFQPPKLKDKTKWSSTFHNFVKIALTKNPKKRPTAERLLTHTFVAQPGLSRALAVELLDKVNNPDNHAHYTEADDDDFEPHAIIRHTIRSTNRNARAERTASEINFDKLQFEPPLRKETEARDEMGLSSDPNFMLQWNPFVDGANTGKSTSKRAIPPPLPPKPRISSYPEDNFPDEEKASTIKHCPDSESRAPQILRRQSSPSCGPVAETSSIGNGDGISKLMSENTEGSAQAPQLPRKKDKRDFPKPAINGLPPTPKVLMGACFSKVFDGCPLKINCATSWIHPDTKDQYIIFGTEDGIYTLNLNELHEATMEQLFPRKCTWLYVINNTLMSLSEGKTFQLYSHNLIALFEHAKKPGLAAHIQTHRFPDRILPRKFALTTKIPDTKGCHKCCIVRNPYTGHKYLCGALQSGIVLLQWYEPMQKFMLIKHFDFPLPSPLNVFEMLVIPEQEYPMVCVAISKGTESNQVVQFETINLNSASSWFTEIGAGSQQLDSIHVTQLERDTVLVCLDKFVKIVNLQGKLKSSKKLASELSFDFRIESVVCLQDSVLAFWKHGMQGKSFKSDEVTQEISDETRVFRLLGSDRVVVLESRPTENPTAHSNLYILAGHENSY
Assay: Kinase profiling (radiometric filter-binding)
Assay type: biochemical
Conditions: MAP4K5, 1 µM inhibitor; read-out: Residual activity, %
Square brackets hold non-standard residues; d marks the D form. Peptide text beside a SMILES is read from it. * marks the point of attachment. X3 = O=C(CCCCCNCc1nc2c(sc3cc(Br)cnc32)c(=O)[nH]1)*
measured endpoint: remaining activity at 1 µM (%)
Numbers only, in %.

Before answering, review these 3 worked examples.
N=C(N)NCCC[C@@H](NC(=O)CCCCCNC(=O)Cn1cnc2c(I)c(I)c(I)c(I)c21)C(=O)N[C@H](CCCNC(=N)N)C(=O)N[C@H](CCCNC(=N)N)C(=O)N[C@H](CCCNC(=N)N)C(=O)N[C@H](CCCNC(=N)N)C(=O)N[C@H](CCCNC(=N)N)C(=O)N[C@H](CCCCN)C(N)=O [ARC-3125, TIBI-CH2-C(=O)-Ahx-(D-Arg)6-D-Lys-NH2] = 102
N=C(N)NCCC[C@@H](NC(=O)CCCCCNCc1nc2c(sc3cc(Br)cnc32)c(=O)[nH]1)C(=O)N[C@H](CCCNC(=N)N)C(=O)N[C@H](CCCNC(=N)N)C(=O)N[C@H](CCCNC(=N)N)C(=O)N[C@H](CCCNC(=N)N)C(=O)N[C@H](CCCNC(=N)N)C(=O)N[C@H](CCCCN)C(N)=O [ARC-3126, BPTP-Ahx-(D-Arg)6-D-Lys-NH2] (X3-[dR][dR][dR][dR][dR][dR][dK]-NH2) = 50
N=C(N)NCCC[C@@H](NC(=O)CNC(=O)[C@@H](CCCNC(=N)N)NC(=O)[C@@H](CCCNC(=N)N)NC(=O)CCCCCCCNCc1nc2c(sc3ccc(Br)cc32)c(=O)[nH]1)C(=O)N[C@H](CCCCN)C(N)=O [Compound 2, BBTP-Aoc-(D-Arg)2-Gly-D-Arg-D-Lys-NH2] = 112

Look up remaining activity at 1 µM for the entries below, preserving their order.
1. N=C(N)NCCC[C@@H](NC(=O)CNC(=O)[C@@H](CCCNC(=N)N)NC(=O)[C@@H](CCCNC(=N)N)NC(=O)CCCCCCCNCc1nc2c(sc3cc(Br)cnc32)c(=O)[nH]1)C(=O)N[C@H](CCCCN)C(N)=O [Compound 1, BPTP-Aoc-(D-Arg)2-Gly-D-Arg-D-Lys-NH2]
2. N=C(N)NCCC[C@@H](NC(=O)CNC(=O)[C@@H](CCCNC(=N)N)NC(=O)[C@@H](CCCNC(=N)N)NC(=O)Cn1cc(CNCc2nc3c(sc4ccc(Br)cc43)c(=O)[nH]2)nn1)C(=O)N[C@H](CCCCN)C(N)=O [Compound 3, BBTP-Amt-(D-Arg)2-Gly-D-Arg-D-Lys-NH2]

Result:
1: 107; 2: 98

* * *

Target: Aurora B (Homo sapiens, UniProt Q96GD4)
Sequence (Q96GD4 whole entry): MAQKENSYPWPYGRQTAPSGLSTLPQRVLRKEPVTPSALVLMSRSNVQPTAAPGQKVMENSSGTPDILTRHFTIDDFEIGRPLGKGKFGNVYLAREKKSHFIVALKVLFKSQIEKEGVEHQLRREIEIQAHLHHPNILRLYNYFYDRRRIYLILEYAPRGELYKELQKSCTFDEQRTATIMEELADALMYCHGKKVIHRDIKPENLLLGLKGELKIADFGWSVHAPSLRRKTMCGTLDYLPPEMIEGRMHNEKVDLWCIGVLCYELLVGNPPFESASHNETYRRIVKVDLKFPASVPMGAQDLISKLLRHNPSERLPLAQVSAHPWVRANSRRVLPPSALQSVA
Test: Kinase profiling (radiometric filter-binding)
Type: biochemical
Conditions: 1 µM inhibitor, read-out: Residual activity, %
Square brackets hold non-standard residues; d marks the D form. Peptide text beside a SMILES is read from it. * marks the point of attachment. X3 = O=C(CCCCCNCc1nc2c(sc3cc(Br)cnc32)c(=O)[nH]1)*
Field: remaining activity at 1 µM. Provide a value for each of the compounds that follow.
For clarity, give the value followed by its unit.

Look up remaining activity at 1 µM for the entries below, preserving their order.
1. N=C(N)NCCC[C@@H](NC(=O)CCCCCNC(=O)Cn1cnc2c(I)c(I)c(I)c(I)c21)C(=O)N[C@H](CCCNC(=N)N)C(=O)N[C@H](CCCNC(=N)N)C(=O)N[C@H](CCCNC(=N)N)C(=O)N[C@H](CCCNC(=N)N)C(=O)N[C@H](CCCNC(=N)N)C(=O)N[C@H](CCCCN)C(N)=O
2. N=C(N)NCCC[C@@H](NC(=O)CNC(=O)[C@@H](CCCNC(=N)N)NC(=O)[C@@H](CCCNC(=N)N)NC(=O)CCCCCCCNCc1nc2c(sc3ccc(Br)cc32)c(=O)[nH]1)C(=O)N[C@H](CCCCN)C(N)=O
3. N=C(N)NCCC[C@@H](NC(=O)CNC(=O)[C@@H](CCCNC(=N)N)NC(=O)[C@@H](CCCNC(=N)N)NC(=O)CCCCCCCNCc1nc2c(sc3cc(Br)cnc32)c(=O)[nH]1)C(=O)N[C@H](CCCCN)C(N)=O

Result:
1. 100%
2. 98%
3. 102%

Look up remaining activity at 1 µM for the entries below, preserving their order.
1. N=C(N)NCCC[C@@H](NC(=O)CCCCCNCc1nc2c(sc3cc(Br)cnc32)c(=O)[nH]1)C(=O)N[C@H](CCCNC(=N)N)C(=O)N[C@H](CCCNC(=N)N)C(=O)N[C@H](CCCNC(=N)N)C(=O)N[C@H](CCCNC(=N)N)C(=O)N[C@H](CCCNC(=N)N)C(=O)N[C@H](CCCCN)C(N)=O [ARC-3126, BPTP-Ahx-(D-Arg)6-D-Lys-NH2] (X3-[dR][dR][dR][dR][dR][dR][dK]-NH2)
2. N=C(N)NCCC[C@@H](NC(=O)CNC(=O)[C@@H](CCCNC(=N)N)NC(=O)[C@@H](CCCNC(=N)N)NC(=O)Cn1cc(CNCc2nc3c(sc4ccc(Br)cc43)c(=O)[nH]2)nn1)C(=O)N[C@H](CCCCN)C(N)=O

Result:
["114%", "111%"]
